# System: MDA-MB-231
# MEASUREMENT DESCRIPTION: Antiproliferative activity against human MDA-MB-231 cells incubated for 48 hrs by MTT assay
# Assay type: functional, cell-based
# RUN CONDITIONS: MDA-MB-231, 48 h
pIC50: −log10 of the molar value.
Here, each record is paired with measured pIC50 data.

Exercise: Param item = Cc1ncsc1-c1ccc([C@H](C)NC(=O)[C@@H]2C[C@@H](O)CN2C(=O)[C@@H](NC(=O)CCCc2cn(CCCCn3c(=O)c(-c4ccc(Cl)cc4Cl)cc4cnc(NC5CC5)nc43)nn2)C(C)(C)C)cc1 ; retrieve measured pIC50.
Key: 4.48

Exercise: What about O=C1CCC(N2C(=O)c3cccc(NCc4cn(CCCCCCCn5c(=O)c(-c6ccc(Cl)cc6Cl)cc6cnc(NC7CC7)nc65)nn4)c3C2=O)C(=O)N1 (stereo unspecified) ?
Key: 5.13

Exercise: What about O=C1CCC(N2C(=O)c3cccc(NCc4cn(CCCCCn5c(=O)c(-c6ccc(Cl)cc6Cl)cc6cnc(NC7CC7)nc65)nn4)c3C2=O)C(=O)N1 (stereo unspecified) ?
Key: < 4.30

Exercise: What about CCn1c(=O)c(-c2ccc(-c3cncs3)cc2Cl)cc2cnc(Nc3ccc(N4CCN(C)CC4)cc3)nc21 ?
Key: 5.49

Exercise: What about Cc1ncsc1-c1ccc([C@H](C)NC(=O)[C@@H]2C[C@@H](O)CN2C(=O)[C@@H](NC(=O)CCCc2cn(CCOCCOCCn3c(=O)c(-c4ccc(Cl)cc4Cl)cc4cnc(NC5CC5)nc43)nn2)C(C)(C)C)cc1 ?
Key: < 4.30

---
Exercise: Param item = CNc1ncc2cc(-c3ccc(Cl)cc3Cl)c(=O)n(CCOCCn3cc(CNc4cccc5c4C(=O)N(C4CCC(=O)NC4=O)C5=O)nn3)c2n1 (stereo unspecified) ; retrieve measured pIC50.
Key: < 4.30

Exercise: What about Cc1ncsc1-c1ccc([C@H](C)NC(=O)[C@@H]2C[C@@H](O)CN2C(=O)[C@@H](NC(=O)CCCCc2cn(CCOCCOCCOCCn3c(=O)c(-c4ccc(Cl)cc4Cl)cc4cnc(NC5CC5)nc43)nn2)C(C)(C)C)cc1 ?
Key: < 4.30

Exercise: What about O=C1CCC(N2C(=O)c3cccc(NCc4cn(CCOCCOCCn5c(=O)c(-c6ccc(Cl)cc6Cl)cc6cnc(NC7CC7)nc65)nn4)c3C2=O)C(=O)N1 (stereo unspecified) ?
Key: < 4.30

----------
# EXPERIMENTAL SYSTEM: von Hippel-Lindau disease tumor suppressor/Serine/threonine-protein kinase PAK 1 (Homo sapiens, UniProt Q13153+P40337)
# Sequence (Q13153 2-545 limits assumed): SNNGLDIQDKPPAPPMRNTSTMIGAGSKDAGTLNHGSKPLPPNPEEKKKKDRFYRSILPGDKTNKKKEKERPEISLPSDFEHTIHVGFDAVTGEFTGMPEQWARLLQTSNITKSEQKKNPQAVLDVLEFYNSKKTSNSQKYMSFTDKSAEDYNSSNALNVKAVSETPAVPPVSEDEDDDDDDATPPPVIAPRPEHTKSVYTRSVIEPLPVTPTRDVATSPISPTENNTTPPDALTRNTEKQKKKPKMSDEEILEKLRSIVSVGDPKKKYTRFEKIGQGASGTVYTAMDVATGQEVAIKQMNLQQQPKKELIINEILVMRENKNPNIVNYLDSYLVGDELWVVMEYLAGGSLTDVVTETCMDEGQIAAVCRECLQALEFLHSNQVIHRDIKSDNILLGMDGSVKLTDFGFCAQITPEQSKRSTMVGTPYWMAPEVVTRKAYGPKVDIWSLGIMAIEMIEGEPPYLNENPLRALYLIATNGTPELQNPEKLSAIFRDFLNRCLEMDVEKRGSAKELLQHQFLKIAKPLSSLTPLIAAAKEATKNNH
# Sequence (P40337 whole entry partner): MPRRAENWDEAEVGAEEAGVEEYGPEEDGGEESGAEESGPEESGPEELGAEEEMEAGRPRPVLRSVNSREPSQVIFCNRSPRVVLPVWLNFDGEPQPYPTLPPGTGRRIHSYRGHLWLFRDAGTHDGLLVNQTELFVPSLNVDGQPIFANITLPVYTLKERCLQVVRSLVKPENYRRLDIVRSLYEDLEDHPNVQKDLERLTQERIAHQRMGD
# MEASUREMENT DESCRIPTION: PROTAC activity at VHL/PAK1 in human MDA-MB-231 cells assessed as fold change in protein expression at 2.5 uM incubated for 48 hrs by Western blot analysis relative to control
# Type: cell-based
VALUE TYPE: fold change (FC)

Exercise: Param item = Cc1ncsc1-c1ccc([C@H](C)NC(=O)[C@@H]2C[C@@H](O)CN2C(=O)[C@@H](NC(=O)CCc2cn(CCOCCn3c(=O)c(-c4ccc(Cl)cc4Cl)cc4cnc(NC5CC5)nc43)nn2)C(C)(C)C)cc1 ; retrieve measured fold change (FC).
Key: 0.557

Exercise: What about Cc1ncsc1-c1ccc([C@H](C)NC(=O)[C@@H]2C[C@@H](O)CN2C(=O)[C@@H](NC(=O)CCCc2cn(CCCCCCCn3c(=O)c(-c4ccc(Cl)cc4Cl)cc4cnc(NC5CC5)nc43)nn2)C(C)(C)C)cc1 ?
Key: 0.318

Exercise: What about Cc1ncsc1-c1ccc([C@H](C)NC(=O)[C@@H]2C[C@@H](O)CN2C(=O)[C@@H](NC(=O)CCCCc2cn(CCOCCOCCOCCn3c(=O)c(-c4ccc(Cl)cc4Cl)cc4cnc(NC5CC5)nc43)nn2)C(C)(C)C)cc1 ?
Key: 0.88

I: Cc1ncsc1-c1ccc([C@H](C)NC(=O)[C@@H]2C[C@@H](O)CN2C(=O)[C@@H](NC(=O)CCCCc2cn(CCCCCn3c(=O)c(-c4ccc(Cl)cc4Cl)cc4cnc(NC5CC5)nc43)nn2)C(C)(C)C)cc1
II: Cc1ncsc1-c1ccc([C@H](C)NC(=O)[C@@H]2C[C@@H](O)CN2C(=O)[C@@H](NC(=O)CCCCc2cn(CCOCCOCCn3c(=O)c(-c4ccc(Cl)cc4Cl)cc4cnc(NC5CC5)nc43)nn2)C(C)(C)C)cc1
Exercise: Please tell me which of the two, I or II , has the higher reported fold change (FC) value. Use the label to indicate which entry you chose.
Key: II

----------
# EXPERIMENTAL SYSTEM: Protein cereblon/Serine/threonine-protein kinase PAK 1 (Homo sapiens) (UniProt Q13153+Q96SW2)
# Sequence (Q13153 whole entry, looked up): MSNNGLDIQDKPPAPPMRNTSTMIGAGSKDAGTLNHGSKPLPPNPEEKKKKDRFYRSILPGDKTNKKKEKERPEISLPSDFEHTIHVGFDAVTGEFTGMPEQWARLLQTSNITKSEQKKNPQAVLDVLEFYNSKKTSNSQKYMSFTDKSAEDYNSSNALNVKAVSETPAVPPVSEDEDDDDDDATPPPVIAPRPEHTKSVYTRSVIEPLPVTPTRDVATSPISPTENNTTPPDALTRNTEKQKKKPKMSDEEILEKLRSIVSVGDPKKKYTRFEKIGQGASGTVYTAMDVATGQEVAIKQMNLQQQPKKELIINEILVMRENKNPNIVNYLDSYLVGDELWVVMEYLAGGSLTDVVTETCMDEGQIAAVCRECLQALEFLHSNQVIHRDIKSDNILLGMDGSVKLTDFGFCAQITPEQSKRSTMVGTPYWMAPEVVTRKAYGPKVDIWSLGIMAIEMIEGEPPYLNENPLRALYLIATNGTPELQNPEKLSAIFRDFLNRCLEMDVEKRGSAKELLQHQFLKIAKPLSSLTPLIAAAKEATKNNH
# Sequence (Q96SW2 whole entry, looked up): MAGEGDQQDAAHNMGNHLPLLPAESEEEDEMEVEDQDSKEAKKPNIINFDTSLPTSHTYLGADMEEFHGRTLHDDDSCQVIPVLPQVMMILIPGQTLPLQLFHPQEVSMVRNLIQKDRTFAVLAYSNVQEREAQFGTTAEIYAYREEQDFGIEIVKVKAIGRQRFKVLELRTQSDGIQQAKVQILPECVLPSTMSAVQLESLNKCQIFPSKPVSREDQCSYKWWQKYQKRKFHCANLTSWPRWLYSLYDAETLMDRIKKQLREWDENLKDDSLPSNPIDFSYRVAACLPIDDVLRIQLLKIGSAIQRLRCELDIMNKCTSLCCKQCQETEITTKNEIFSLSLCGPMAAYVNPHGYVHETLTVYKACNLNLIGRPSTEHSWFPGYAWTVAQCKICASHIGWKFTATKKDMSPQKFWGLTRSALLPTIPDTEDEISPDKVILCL
# MEASUREMENT DESCRIPTION: PROTAC activity at CRBN/PAK1 in human MDA-MB-231 cells assessed as fold change in protein expression at 2.5 uM incubated for 48 hrs by Western blot analysis relative to control
# Assay type: cell-based
VALUE TYPE: fold change (FC)

Some compounds with recorded fold change (FC):
Exercise: Param item = CNc1ncc2cc(-c3ccc(Cl)cc3Cl)c(=O)n(CCOCCOCCOCCn3cc(CNc4cccc5c4C(=O)N(C4CCC(=O)NC4=O)C5=O)nn3)c2n1 (stereo unspecified) ; retrieve measured fold change (FC).
Key: 0.988

Exercise: What about O=C1CCC(N2C(=O)c3cccc(NCc4cn(CCCCCn5c(=O)c(-c6ccc(Cl)cc6Cl)cc6cnc(NC7CC7)nc65)nn4)c3C2=O)C(=O)N1 (stereo unspecified) ?
Key: 0.809

I: CNc1ncc2cc(-c3ccc(Cl)cc3Cl)c(=O)n(CCCCn3cc(CNc4cccc5c4C(=O)N(C4CCC(=O)NC4=O)C5=O)nn3)c2n1 (stereo unspecified)
II: CNc1ncc2cc(-c3ccc(Cl)cc3Cl)c(=O)n(CCCCCn3cc(CNc4cccc5c4C(=O)N(C4CCC(=O)NC4=O)C5=O)nn3)c2n1 (stereo unspecified)
Exercise: I would appreciate it if you could say which entry, I or II , has the lower fold change (FC) value. Use the label to indicate which entry you chose.
Key: I
(I: 0.583, II: 0.97)

a: O=C1CCC(N2C(=O)c3cccc(NCc4cn(CCCCCCn5c(=O)c(-c6ccc(Cl)cc6Cl)cc6cnc(NC7CC7)nc65)nn4)c3C2=O)C(=O)N1 (stereo unspecified)
b: O=C1CCC(N2C(=O)c3cccc(NCc4cn(CCCCCCCn5c(=O)c(-c6ccc(Cl)cc6Cl)cc6cnc(NC7CC7)nc65)nn4)c3C2=O)C(=O)N1 (stereo unspecified)
Exercise: Please tell me which of the two, a or b , has the higher reported fold change (FC) value. Use the label to indicate which entry you chose.
Key: a
(a: 0.761, b: 0.44)

----------
# EXPERIMENTAL SYSTEM: Protein cereblon/Serine/threonine-protein kinase PAK 1 (Homo sapiens) (UniProt Q13153+Q96SW2)
# MEASUREMENT DESCRIPTION: PROTAC activity at CRBN/PAK1 in human MDA-MB-231 cells assessed as induction of protein degradation at 2.5 uM incubated for 48 hrs by Western blot analysis relative to control
# Assay type: cell-based
VALUE TYPE: Activity (%)

Some compounds with recorded Activity:
Exercise: Param item = CNc1ncc2cc(-c3ccc(Cl)cc3Cl)c(=O)n(CCCCCn3cc(CNc4cccc5c4C(=O)N(C4CCC(=O)NC4=O)C5=O)nn3)c2n1 (configuration not stated) ; retrieve measured Activity.
Key: -5.4

Exercise: What about CNc1ncc2cc(-c3ccc(Cl)cc3Cl)c(=O)n(CCCCCCn3cc(CNc4cccc5c4C(=O)N(C4CCC(=O)NC4=O)C5=O)nn3)c2n1 (configuration not stated) ?
Key: 41.7

Exercise: What about O=C1CCC(N2C(=O)c3cccc(NCc4cn(CCCCCCn5c(=O)c(-c6ccc(Cl)cc6Cl)cc6cnc(NC7CC7)nc65)nn4)c3C2=O)C(=O)N1 (configuration not stated) ?
Key: 34.7

Exercise: What about O=C1CCC(N2C(=O)c3cccc(NCc4cn(CCCCCn5c(=O)c(-c6ccc(Cl)cc6Cl)cc6cnc(NC7CC7)nc65)nn4)c3C2=O)C(=O)N1 (configuration not stated) ?
Key: 19.2

Exercise: What about O=C1CCC(N2C(=O)c3cccc(NCc4cn(CCOCCOCCOCCn5c(=O)c(-c6ccc(Cl)cc6Cl)cc6cnc(NC7CC7)nc65)nn4)c3C2=O)C(=O)N1 (configuration not stated) ?
Key: -6.9

a: O=C1CCC(N2C(=O)c3cccc(NCc4cn(CCOCCn5c(=O)c(-c6ccc(Cl)cc6Cl)cc6cnc(NC7CC7)nc65)nn4)c3C2=O)C(=O)N1 (configuration not stated)
b: CNc1ncc2cc(-c3ccc(Cl)cc3Cl)c(=O)n(CCOCCn3cc(CNc4cccc5c4C(=O)N(C4CCC(=O)NC4=O)C5=O)nn3)c2n1 (configuration not stated)
Exercise: Please tell me which of the two, a or b , has the higher reported Activity value. Use the label to indicate which entry you chose.
Key: b

Values compiled from ChEMBL document CHEMBL6127034.
